FYI, the data here is from PubChem BioAssay AID256.

Recorded T/C values for a group of compounds are listed next.
# Tested on: CD2F1 mice, L1210 leukemia ip, survival T/C
# assay_name: NCI In Vivo Anticancer Drug Screen. Data for tumor model L1210 Leukemia (intraperitoneal) in CD2F1 (CDF1) mice
# condition_set: endpoint: mean survival time; dose: 25.0 mg/kg/injection; schedule: Q01DX009 (ip); vehicle: saline; higher = longer survival
Inconclusive results and toxic doses are left out.

Below are worked cases with known answers.
compound="O=C(O)C(CNC(=O)C(F)(F)F)Cc1ccc([N+](=O)[O-])cc1 (centres undefined)" tgt="CD2F1 mice, L1210 leukemia ip, survival T/C" quantity_kind=T/C result="98 % of control"
compound=O=C1CCCCc2c1ccc(O)c2[N+](=O)[O-] tgt="CD2F1 mice, L1210 leukemia ip, survival T/C" quantity_kind=T/C result="106 % of control"
compound=CCN(CC)C(=O)c1ccc[n+](CC(=O)Nc2ccccc2)c1 tgt="CD2F1 mice, L1210 leukemia ip, survival T/C" quantity_kind=T/C result="108 % of control"

In the following, a different compound is considered.
What T/C value was documented for this compound, O=C1OC2CC3CCC2C13 (centres undefined) ?
95 % of control

###

# Tested on: CD2F1 mice, L1210 leukemia ip, survival T/C
# assay_name: NCI In Vivo Anticancer Drug Screen. Data for tumor model L1210 Leukemia (intraperitoneal) in CD2F1 (CDF1) mice
# condition_set: endpoint: mean survival time; dose: 200.0 mg/kg/injection; schedule: Q04DX003 (ip); vehicle: saline with Tween-80; higher = longer survival
Inconclusive results and toxic doses are left out.
Let's look at some compounds and their measured T/C.

Observe how each entry below is paired with its result.
compound="O=S(=O)(NC1CCc2ccccc21)c1ccccc1 (stereo not drawn)" tgt="CD2F1 mice, L1210 leukemia ip, survival T/C" result="97 % of control"
compound="NS(=O)(=O)C1CCC(Cl)NC1 (stereo not drawn)" tgt="CD2F1 mice, L1210 leukemia ip, survival T/C" result="96 % of control"
compound=N#Cc1ccc(C(=O)CC(O)(C(F)(F)F)C(F)(F)F)cc1 tgt="CD2F1 mice, L1210 leukemia ip, survival T/C" result="101 % of control"

Given the entry COc1ccc(OC)c(C2=CCCCCC2)c1 , report its measured T/C.
102 % of control

Likewise for CCNC(=S)N(Cc1ccccc1)Cc1ccccc1 ?
100 % of control

###

# System: CD2F1 mice, L1210 leukemia ip, survival T/C
# assay_name: NCI In Vivo Anticancer Drug Screen. Data for tumor model L1210 Leukemia (intraperitoneal) in CD2F1 (CDF1) mice
# condition_set: endpoint: mean survival time; dose: 50.0 mg/kg/injection; schedule: Q04DX002 (ip); vehicle: saline with Tween-80; higher = longer survival
Inconclusive results and toxic doses are left out.
quantity_kind: T/C

Reference set, count: 2
compound=CC(=O)Nc1c(C#N)c(C#N)nn1C result="98 % of control"
compound=COc1cc(NC(=O)Nc2ccccc2Cl)c(OC)cc1Cl result="94 % of control"

Entry CC(=Nc1ccccc1)C1=C(O)C(Cc2ccc(F)cc2)NC1=O (stereo unspecified) : reported T/C = ?
100 % of control

Subsequent entry: OCCSc1c(Cl)c(Cl)c(Cl)c(Cl)c1Cl
95 % of control

Repeat with CCOC(=O)C(O)C(C)(Cl)c1ccccc1 (stereo unspecified)
102 % of control

Same question, CC1(C)N=C(N)N=C(N)N1c1ccc(OCCCCNC(=O)c2ccc(S(=O)(=O)F)cc2)c(Cl)c1 this time
104 % of control
